Each entry below lists one item and its recorded RUNX1 binding intensity value.
- assayed.target: RUNX1 (UniProt Q01196)
- Sequence (Q01196 whole entry): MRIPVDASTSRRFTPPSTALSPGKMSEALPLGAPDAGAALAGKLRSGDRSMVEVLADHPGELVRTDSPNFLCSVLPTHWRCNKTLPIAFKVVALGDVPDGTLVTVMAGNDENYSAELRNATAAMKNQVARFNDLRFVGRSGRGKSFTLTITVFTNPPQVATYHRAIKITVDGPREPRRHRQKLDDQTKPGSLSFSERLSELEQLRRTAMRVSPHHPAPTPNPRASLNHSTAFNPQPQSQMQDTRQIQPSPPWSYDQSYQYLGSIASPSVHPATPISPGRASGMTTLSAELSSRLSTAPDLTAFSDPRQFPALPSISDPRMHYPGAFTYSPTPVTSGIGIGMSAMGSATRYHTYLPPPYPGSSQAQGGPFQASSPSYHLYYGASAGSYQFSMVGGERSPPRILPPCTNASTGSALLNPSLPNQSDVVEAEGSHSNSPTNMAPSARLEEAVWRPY
- test.protocol: RUNX1 binding intensity (PBM fluorescence) in presence of ETS1, normalised to RUNX1-only experiment (arbitrary fluorescence units); higher = stronger binding;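 note: Full-length recombinant human ETS1 or RUNX1 bound to double-stranded 36-bp genomic probes on microarrays, detected by protein-specific primary antibody and Alexa488 secondary, spot fluorescence as median of four replicate spots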
- conditions: RUNX1 concentration 2 nM; ETS1 concentration 25 nM

- sequence.content: "GAAGCCCAACAGGATGCCGAGTAACCACCCACTGAA"
  RUNX1 binding intensity: 924
- sequence.content: "GGTTTCGCTTCCGGGTTAGGCGGCCGCAGAAGCGTA"
  RUNX1 binding intensity: 1980
- sequence.content: "TATGTCTGACTTCCGCTCGTGGTTTCCATCTTAGCC"
  RUNX1 binding intensity: 2850
- sequence.content: "CAAAAGTGCTTCCTCTCGAGGGGTTGTGGTTCTTAC"
  RUNX1 binding intensity: 1070
- sequence.content: "AAAGCAAAGTCAAGAGGATGTGGTGACCAATTCTGC"
  RUNX1 binding intensity: 855
- sequence.content: "CGACTTCCGTCCCTGGGTGGGATCGAACCACCAACC"
  RUNX1 binding intensity: 2780
- sequence.content: "TGTCCACCTCTACGGAAGTGCGCCGCAGTCCGCCAG"
  RUNX1 binding intensity: 908
- sequence.content: "CAGTGAACAGTTTCCTGTTCCTGTGGTTTTGACTTT"
  RUNX1 binding intensity: 3980
- sequence.content: "AAAGTAGGTCCGGTCCGCGGGTGCGGTCGGGCATGC"
  RUNX1 binding intensity: 878
- sequence.content: "GGCGAGGCTGAGAGGAAACCACACTCTCACTGGGGT"
  RUNX1 binding intensity: 921
- sequence.content: "CCTGCTGCTTCCGCCCGGAGTTGTTGTGGGCTCCAG"
  RUNX1 binding intensity: 1870
- sequence.content: "GGGGCGGCTTCCGGCGGCGTGACCTGACCGCAAGAG"
  RUNX1 binding intensity: 9110
- sequence.content: "ACCATCCTGTAGTCTGTTAAGTGAGCAACCGCATTA"
  RUNX1 binding intensity: 1900
- sequence.content: "CCACGTAAAGGCGGAAGCGGTTGAGTGGACGCCATC"
  RUNX1 binding intensity: 1640
- sequence.content: "TTCTTCCCCCTTCCGGTCGCTGAGTGGTTGAGGCCG"
  RUNX1 binding intensity: 2500
- sequence.content: "GAGGCAGGCGGATGTCAGTGTGGTTAGAGCACAGTG"
  RUNX1 binding intensity: 1960
- sequence.content: "AGGCCGCTTCCTCCCACATGAAACCGCAGGCTTCGG"
  RUNX1 binding intensity: 10900
- sequence.content: "AGTTGGTTCCTTCCGGTGGGTTTGTGGGTTTGGGGT"
  RUNX1 binding intensity: 2390
- sequence.content: "GACACAAGCCTCACAGGATGTGGTCAAAGAAGGTTG"
  RUNX1 binding intensity: 3910
- sequence.content: "CCAAAAACCCCAGGAGGATGTGGTGAGGAGGGAAGG"
  RUNX1 binding intensity: 1040
- sequence.content: "AACTGTCTCTACCCAGGAAGTGGTTTTATTTAAAAG"
  RUNX1 binding intensity: 2190
- sequence.content: "CTGGTTTCCAACATCCTGTGGGCGGCCTGGTTTCAG"
  RUNX1 binding intensity: 2210
- sequence.content: "TCTGTTCTTCCTTTTCCTGTGCGGTGTGCCCCAAAC"
  RUNX1 binding intensity: 2810
- sequence.content: "GGGTGCTTCCTATAAACAATGACTCATTACCGCACT"
  RUNX1 binding intensity: 976
- sequence.content: "GTCACAGGAAAGAAGGAGCCTCGCCTTAACCGCACC"
  RUNX1 binding intensity: 1310
- sequence.content: "CTGCTGGCGTTCCCGGATGTGCGGTGGCGGTGCTAC"
  RUNX1 binding intensity: 1570
- sequence.content: "GAGGAGATTTCCGGCCCCCATCCCCGCAGCGACCTT"
  RUNX1 binding intensity: 1820
- sequence.content: "CTCCGCCTTTCACTTCCTAGTAACCGCCCTCCCTTG"
  RUNX1 binding intensity: 2400

Source of measurements: the supplement of paper PMC10681739
